- measured_target: T1, 4H3189-bH
- T1 chain: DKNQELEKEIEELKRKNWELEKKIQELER
- assay: two-hybrid library CCNG1;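 also: natural log of median RNA to DNA barcode read ratio; higher means stronger binding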
// reported interaction score per item
measured_attribute: interaction score

binder="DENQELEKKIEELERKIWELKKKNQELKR [4H1328-bH]" experimental_value=-0.241
binder="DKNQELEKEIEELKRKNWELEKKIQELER [4H3189-bH]" experimental_value=0.907
binder="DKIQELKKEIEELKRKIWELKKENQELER [4H2667-bH]" experimental_value=-0.454
binder="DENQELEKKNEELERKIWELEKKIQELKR [4H1446-bH]" experimental_value=-1.86
